# ASSAY_TARGET: T1, mouse CTGF (antigen of the Biacore assay) (mouse, UniProt P29268 26-348)
# T1 construct: also called mouse CTGF protein
# T1 sequence (looked up): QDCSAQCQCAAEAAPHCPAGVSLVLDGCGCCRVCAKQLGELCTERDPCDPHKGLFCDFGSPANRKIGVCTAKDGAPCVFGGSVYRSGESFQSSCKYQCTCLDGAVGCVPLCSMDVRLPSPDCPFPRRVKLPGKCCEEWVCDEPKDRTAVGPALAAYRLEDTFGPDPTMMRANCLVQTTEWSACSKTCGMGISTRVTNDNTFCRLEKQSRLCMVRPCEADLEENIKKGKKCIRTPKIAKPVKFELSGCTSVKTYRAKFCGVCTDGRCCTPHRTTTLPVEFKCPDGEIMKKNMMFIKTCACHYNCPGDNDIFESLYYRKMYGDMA
# TEST_DESCRIPTION: Biacore, antibody captured on Protein A, mouse CTGF in flow, 1:1 fit
# maps each entry to its Kd
Only the number, expressed in nM, is required.

Example results:
{"BINDER": "chimeric antibody Ch95 (antibody, human IgG1, kappa, V domains shown) VH: EVLLQQSGPVLVKPGPSVKISCKASGFTFTNYDIHWVKQSHGKSLEWIGLVYPYNGGTAYNQKFKDKATLTFDTSSSTAYMELNSLTSEDSAVYYCARWGLIPGTTSYFDVWGTGTTVTVSS VL: QIVLSQSPPILSASPGEKVTMTCRASSSVSYIHWYQQKPRSSPKPWIYATSNLASGVPARFSGSGSGTSYSLTISRVEAEDAATYYCQQWNSNPWTFGGGTRLEIKR", "Kd (nM)": 1.71}
{"BINDER": "chimeric antibody Ch164 (antibody, human IgG1, lambda, V domains shown) VH: QVQLKQSGPGLVQPSQSLSITCTVSGFSLTTFGVHWIRQSPGKGLEWLGVIWRRGGTDYNAAFMSRLSITKDNSRSHVFFKMTSLQTDDSAIYYCARDGGFDYWGQGTTLTVSS VL: QAVVTQESALTTSPGGTVILTCRSSIGAVTTSNYANWVQEKPDHLFTGLIGGTSNRAPGVPVRFSGSLIGDKAALTITGAQAEDDAMYFCALWYSTHYVFGGGTKVTVLG", "Kd (nM)": 0.0822}
{"BINDER": "Hu164-77wl (antibody, human IgG1, lambda, V domains shown) VH: EVQLQESGPGLVKPSQTLSLTCTVSGFSISTFGVHWIRQHPGKGLEWIGVIWRRGGTDYNAAFMSRVTISKDTSKNQVSLKLSSVTAADTAVYYCARDGGFDYWGQGTTVTVSS VL: ETVVTQEPSLTVSPGGTVTLTCRSSIGAVTTSNYANWVQQKPGQAFRGLIGGTSNRAPWTPARFSGSLLGGKAALTLSGVQPEDEAEYYCALWYSTHYVFGGGTKLTVLG", "Kd (nM)": 0.148}

Consider Hu164-57wl (antibody, human IgG1, lambda, V domains shown) VH: EVTLKESGPVLVKPTETLTLTCTVSGFSLSTFGVHWIRQPPGKALEWLAVIWRRGGTDYNAAFMSRLTISKDTSKSQVVLTMTNMDPVDTATYYCARDGGFDYWGQGTTVTVSS VL: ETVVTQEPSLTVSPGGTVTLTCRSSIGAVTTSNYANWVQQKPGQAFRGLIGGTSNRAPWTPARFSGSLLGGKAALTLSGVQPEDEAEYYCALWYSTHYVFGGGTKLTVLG . Its measured Kd is 0.0322

Consider Hu95-21wk (antibody, human IgG1, kappa, V domains shown) VH: EVQLVQSGAEVKKPGASVKVSCKASGFTFTNYDIHWVRQAPGQRLEWIGLVYPYNGGTAYNQKFKDRATLTFDTSASTAYMELSSLRSEDTAVYYCARWGLIPGTTSYFDVWGQGTTVTVSS VL: EIVLTQSPATLSLSPGERATLSCRASSSVSYIHWYQQKPGQAPRPWIYATSNLASGIPARFSGSGSGTDYTLTISRLEPEDFAVYYCQQWNSNPWTFGGGTKVEIKR . Its measured Kd is 3.99

Consider Hu164-69wl (antibody, human IgG1, lambda, V domains shown) VH: EVTLKESGPVLVKPTETLTLTCTVSGFSLSTFGVHWIRQPPGKGLEWLGVIWRRGGTDYNAAFMSRLTISKDTSKSQVVFTMTNMDPVDTATYYCARDGGFDYWGQGTTVTVSS VL: ESVVTQPPSVSGAPGQRVTISCRSSIGAVTTSNYANWVQQLPGTAFKGLIGGTSNRAPGVPDRFSGSKSGTSASLAITGLQAEDEADYYCALWYSTHYVFGGGTKLTVLG . Its measured Kd is 0.126

Consider Hu147-33wk (antibody, human IgG1, kappa, V domains shown) VH: EVQLVESGGGLVQPGGSLRLSCAASGFSFNTYAMNWVRQAPGKGLEWVARIRTKSNNYATYYADSVKDRFTISRDDSESSLYLQMNSLKTEDTAVYYCVETGFAYWDQGTLVTVSS VL: EIVLTQSPATLSLSPGERATLSCSASSSVSYMHWFQQKPGQSPKLWIYSTSNLASGVPARFSGSGSGTDYTLTISSLEPEDFAVYYCQQRSSYPLTFGQGTKLEIKR . Its measured Kd is 1.93

Consider Hu147-23wk (antibody, human IgG1, kappa, V domains shown) VH: EVQLVESGGGLVQPGGSLRLSCAASGFTFNTYAMNWVRQAPGKGLEWVARIRTKSNNYATYYADSVKDRFTISRDDSKNSLYLQMNSLKTEDTAVYYCVETGFAYWDQGTLVTVSS VL: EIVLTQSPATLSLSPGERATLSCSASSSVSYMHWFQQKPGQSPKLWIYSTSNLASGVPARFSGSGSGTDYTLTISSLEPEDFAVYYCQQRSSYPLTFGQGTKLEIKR . Its measured Kd is 2.12

Consider Hu147-32wk (antibody, human IgG1, kappa, V domains shown) VH: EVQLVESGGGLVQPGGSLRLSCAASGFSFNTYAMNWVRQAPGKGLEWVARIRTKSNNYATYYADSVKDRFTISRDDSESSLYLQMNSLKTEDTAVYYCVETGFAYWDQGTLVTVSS VL: EIVLTQSPATLSLSPGERATLSCSASSSVSYMHWFQQKPGQSPKLLIYSTSNLASGIPARFSGSGSGTDYTLTISSLEPEDFAVYYCQQRSSYPLTFGQGTKLEIKR . Its measured Kd is 2.49

Consider Hu147-12wk (antibody, human IgG1, kappa, V domains shown) VH: EVQLVESGGGLVQPGGSLRLSCAASGFTFSTYAMNWVRQAPGKGLEWVGRIRTKSNNYATYYADSVKDRFTISRDDSKNSLYLQMNSLKTEDTAVYYCVETGFAYWDQGTLVTVSS VL: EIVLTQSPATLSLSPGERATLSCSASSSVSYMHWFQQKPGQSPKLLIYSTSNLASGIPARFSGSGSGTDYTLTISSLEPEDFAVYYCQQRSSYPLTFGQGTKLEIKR . Its measured Kd is 3.09
